Where do these numbers come from? They come from the supplement of paper PMC11219838.

Test system: Meloidogyne hapla J2
assayDetails: proportion of mobile M. hapla J2 relative to DMSO control (fraction of DMSO control); higher = more viable, less nematicidal, active = 0.7 or less
recordedConditions: 60 µM; 5 days; temperature: 20 °C
Lab note: anything with proportion of mobile M. hapla J2 at or over 1 counts as condition met; the rest go in condition not met.

Worked examples, 2 compounds total:
# compound, classification
measured = [
    ("CCOc1nc(-c2ccc(C)cc2)ccc1-c1noc(-c2ccncc2)n1", "condition not met"),
    ("COc1ccc(C(=O)Nc2ccc(-c3nnc(SCc4ccccc4)o3)cc2)cc1", "condition met"),
]

Task: Hi team, for "Cc1cc(C)cc(NC(=O)CSc2nnc(-c3ccccc3)o2)c1" , is the recorded proportion of mobile M. hapla J2 at or above 1?
Output: condition met

Task: Hi team, for O=C(CSc1nnc(-c2ccc(Cl)cc2)o1)NC1CC2CCC1C2 (stereo not given) , is the recorded proportion of mobile M. hapla J2 at or above 1?
Output: condition not met

Task: Hi team, for "Cc1ccc(Cl)cc1NC(=O)CSc1nnc(-c2ccncc2)o1" , is the recorded proportion of mobile M. hapla J2 at or above 1?
Output: condition not met

Task: Hi team, for "c1ccc(CSc2nnc(-c3ccccc3)o2)cc1" , is the recorded proportion of mobile M. hapla J2 at or above 1?
Output: condition met

Task: Hi team, for "Cc1ccc(-c2noc(-c3cccc(C)c3)n2)cc1" , is the recorded proportion of mobile M. hapla J2 at or above 1?
Output: condition not met

====

Tested on: Ditylenchus dipsaci
assayDetails: proportion of mobile D. dipsaci (mixed stage) relative to DMSO control (fraction of DMSO control); higher = more viable, less nematicidal, active = 0.86 or less; extreme values may be limits of the assay
recordedConditions: 60 µM; 5 days; temperature: 20 °C
Classes to choose from: label 1 for active, label 0 for inactive

Worked examples, 2 molecules total:
# molecule, testedSystem, classification
data = [
    ("Clc1ccccc1-c1noc(COc2ccc(Br)cc2)n1", "Ditylenchus dipsaci", "label 0"),
    ("Cc1cc(Cl)ccc1OCc1nc(-c2ccc(F)cc2)no1", "Ditylenchus dipsaci", "label 0"),
]

Task: Outcome logged for "CC(=O)Nc1c(C)ccc(CNC(=O)CSc2nnc(-c3ccc(C(C)(C)C)cc3)o2)c1C" in this assay:
Output: label 0

Task: Outcome logged for "Ic1cccc(-c2nc(-c3cccnc3)no2)c1" in this assay:
Output: label 0

Task: Outcome logged for "O=C(CSc1nnc(-c2ccccc2)o1)Nc1ccccc1F" in this assay:
Output: label 0

Task: Outcome logged for "COc1ccccc1-c1nc(-c2ccc(Cl)cc2Cl)no1" in this assay:
Output: label 0

Task: Outcome logged for "Cc1ccc(-c2noc(C3CCCCC3)n2)cc1" in this assay:
Output: label 0

Task: Outcome logged for "Cc1ccc(-c2noc(-c3ccccc3OCC(N)=O)n2)cc1" in this assay:
Output: label 0

Task: Outcome logged for "COc1cccc(-c2noc(-c3cccc(F)c3)n2)c1" in this assay:
Output: label 0

Task: Outcome logged for "COc1ccc(-c2noc(CSc3nc4cc(C)ccc4[nH]3)n2)cc1" in this assay:
Output: label 0

Task: Outcome logged for "CCc1ccc(OCc2nc(-c3ccccn3)no2)cc1" in this assay:
Output: label 0

Task: Outcome logged for "Cn1c(SCc2nc(-c3ccc(Br)cc3)no2)nnc1-c1ccco1" in this assay:
Output: label 0

Task: Outcome logged for "CC(=O)c1cccc(NC(=O)CSc2nnc(-c3ccccc3)o2)c1" in this assay:
Output: label 0

Task: Outcome logged for "Cc1ccc(-c2noc(COc3ccc(Cl)cc3)n2)cc1" in this assay:
Output: label 0

Task: Outcome logged for "Cc1ccc(-c2nnc(SCc3ccccc3C)o2)cc1" in this assay:
Output: label 0

Task: Outcome logged for "O=C(CSc1nnc(-c2ccco2)o1)Nc1cc(Cl)ccc1Cl" in this assay:
Output: label 0

Task: Outcome logged for "CCc1cccc(C)c1NC(=O)CSc1nnc(-c2ccccc2)o1" in this assay:
Output: label 0

Task: Outcome logged for "Ic1ccc(-c2nc(-c3cccnc3)no2)cc1" in this assay:
Output: label 0

Task: Outcome logged for "Cc1ccc(OCc2nc(-c3cccnc3)no2)cc1C" in this assay:
Output: label 0

Task: Outcome logged for "Cc1ccccc1-c1noc(CSc2nc3ccccc3[nH]2)n1" in this assay:
Output: label 0

====

Tested on: Ditylenchus dipsaci
assayDetails: proportion of mobile D. dipsaci (mixed stage) relative to DMSO control (fraction of DMSO control); higher = more viable, less nematicidal, active = 0.86 or less; extreme values may be limits of the assay
recordedConditions: 60 µM; 5 days; temperature: 20 °C
Classes to choose from: YES = active, NO = inactive

Worked examples, 5 compounds total:
# compound, classification
rows = [
    ("Clc1ccc(OCc2nc(-c3ccc(Br)o3)no2)cc1", "NO"),
    ("COc1ccc(-c2noc(COc3ccc(Br)cc3)n2)cc1", "NO"),
    ("Fc1ccc(-c2nc(-c3cccc(C(F)(F)F)c3)no2)cc1", "NO"),
    ("O=C(CSc1nnc(-c2ccco2)o1)c1ccccc1", "NO"),
    ("O=C(Nc1ccccc1-c1nc(-c2ccncc2)no1)c1ccc(Cl)cc1", "NO"),
]

Task: Outcome logged for "Cc1cccc(OCc2nc(-c3ccccc3Cl)no2)c1" in this assay:
Output: NO

Task: Outcome logged for "COc1ccc(CC(=O)Nc2ccc(-c3noc(-c4ccc(F)cc4)n3)cc2)cc1" in this assay:
Output: NO

Task: Outcome logged for "O=C(NCCc1ccccc1)c1ccccc1-c1nc(-c2ccccc2Cl)no1" in this assay:
Output: NO

Task: Outcome logged for "O=C(CSc1nnc(-c2ccco2)o1)Nc1ccc(F)cc1" in this assay:
Output: NO

Task: Outcome logged for "Cc1ccc(OCc2nc(-c3ccccn3)no2)cc1C" in this assay:
Output: NO

Task: Outcome logged for "CCOc1ccc(NC(=O)CSc2nnc(-c3ccncc3)o2)cc1" in this assay:
Output: NO

Task: Outcome logged for "COc1nc2ccc(C)cc2cc1-c1noc(-c2cccnc2)n1" in this assay:
Output: NO

Task: Outcome logged for CC1CC(C)CN(C(=O)CSc2nnc(-c3ccccc3)o2)C1 (stereo not given) in this assay:
Output: NO

Task: Outcome logged for "O=C(CSc1nnc(-c2ccco2)o1)NC1CCCCC1" in this assay:
Output: NO

Task: Outcome logged for "COc1ccccc1CC(=O)Nc1ccc(-c2noc(-c3ccc(Cl)cc3)n2)cc1" in this assay:
Output: NO

Task: Outcome logged for "Brc1cccc(-c2nc(-c3cccnc3)no2)c1" in this assay:
Output: NO

Task: Outcome logged for "Clc1cccc(-c2nc(-c3ccncc3)no2)c1" in this assay:
Output: NO

Task: Outcome logged for "CC(C)(Oc1ccc(Cl)cc1)c1nc(-c2ccncc2)no1" in this assay:
Output: NO

Task: Outcome logged for "Brc1ccc(-c2noc(-c3cccs3)n2)cc1" in this assay:
Output: NO

Task: Outcome logged for "CC(=O)Nc1ccc(-c2nc(-c3ccccc3)no2)cc1" in this assay:
Output: NO

Task: Outcome logged for "COc1ccc(Cl)cc1-c1noc(-c2ccc(Cl)cc2)n1" in this assay:
Output: NO

Task: Outcome logged for "Clc1ccc(-c2noc(COc3ccc4c(c3)OCO4)n2)cc1" in this assay:
Output: NO

Task: Outcome logged for "Brc1ccc(-c2nc(-c3ccccc3)no2)cc1" in this assay:
Output: NO

Task: Outcome logged for "O=C(CSc1nnc(-c2cccc(Br)c2)o1)c1ccccc1" in this assay:
Output: YES

Task: Outcome logged for "Cc1ccc(-c2noc(COc3cccc(C)c3)n2)cc1" in this assay:
Output: NO

====

Test system: Meloidogyne hapla J2
assayDetails: proportion of mobile M. hapla J2 relative to DMSO control (fraction of DMSO control); higher = more viable, less nematicidal, active = 0.7 or less
recordedConditions: 60 µM; 5 days; temperature: 20 °C
Classes to choose from: active, inactive

Worked examples, 10 compounds total:
# compound, testedSystem, classification
records = [
    ("Cc1ccc(-c2nc(-c3ccncc3)no2)cc1Cl", "Meloidogyne hapla J2", "inactive"),
    ("Cc1nc(CSc2nnc(-c3ccc(Cl)cc3)o2)cs1", "Meloidogyne hapla J2", "inactive"),
    ("Cc1ccc(-c2nc(-c3ccccc3)no2)cc1Cl", "Meloidogyne hapla J2", "inactive"),
    ("Cc1ccc(-c2nnc(SCc3ccccc3C#N)o2)cc1", "Meloidogyne hapla J2", "inactive"),
    ("COc1ccc(Cl)cc1NC(=O)CSc1nnc(-c2ccncc2)o1", "Meloidogyne hapla J2", "inactive"),
    ("Cc1ccc(SC(C)c2nc(-c3ccncc3)no2)cc1 (stereo not given)", "Meloidogyne hapla J2", "inactive"),
    ("O=C(Nc1ccc(-c2noc(-c3ccc(F)cc3)n2)cc1)c1ccc(Br)o1", "Meloidogyne hapla J2", "inactive"),
    ("COc1ccccc1-c1nnc(SCC(=O)Nc2ccc(F)cc2)o1", "Meloidogyne hapla J2", "inactive"),
    ("Cc1cc(OCc2nc(-c3ccccn3)no2)cc(C)c1Cl", "Meloidogyne hapla J2", "inactive"),
    ("COc1cccc(-c2nnc(SCC(=O)NC3CCCCC3)o2)c1", "Meloidogyne hapla J2", "inactive"),
]

Task: Outcome logged for "CCOc1nc(-c2ccccc2)ccc1-c1noc(-c2cccc(C)c2)n1" in this assay:
Output: inactive

Task: Outcome logged for "Clc1cc(Br)ccc1OCc1nc(-c2cccnc2)no1" in this assay:
Output: inactive

Task: Outcome logged for "CCCC(=O)Nc1ccccc1-c1nc(-c2ccccn2)no1" in this assay:
Output: inactive

Task: Outcome logged for "Fc1ccc(-c2noc(-c3ccc(Cl)cc3)n2)cc1" in this assay:
Output: inactive

Task: Outcome logged for "COc1cccc(-c2noc(-c3c(F)cccc3F)n2)c1" in this assay:
Output: inactive

Task: Outcome logged for "COc1ccc(-c2noc(C3CCCCC3)n2)cc1" in this assay:
Output: inactive

Task: Outcome logged for "O=C(CSc1nnc(-c2ccc(Br)cc2)o1)NC1CCCCC1" in this assay:
Output: inactive

Task: Outcome logged for "CCOc1ccccc1NC(=O)CSc1nnc(-c2ccco2)o1" in this assay:
Output: inactive

Task: Outcome logged for "COc1nc(C)ccc1-c1noc(-c2ccc(F)cc2)n1" in this assay:
Output: inactive

Task: Outcome logged for "CCOc1cc(-c2nc(-c3ccccc3OC)no2)cc(OCC)c1OCC" in this assay:
Output: inactive
